Value source: paper PMC8504695

Target: human ACE2 (Homo sapiens)
Sequence (Q9BYF1 18-805): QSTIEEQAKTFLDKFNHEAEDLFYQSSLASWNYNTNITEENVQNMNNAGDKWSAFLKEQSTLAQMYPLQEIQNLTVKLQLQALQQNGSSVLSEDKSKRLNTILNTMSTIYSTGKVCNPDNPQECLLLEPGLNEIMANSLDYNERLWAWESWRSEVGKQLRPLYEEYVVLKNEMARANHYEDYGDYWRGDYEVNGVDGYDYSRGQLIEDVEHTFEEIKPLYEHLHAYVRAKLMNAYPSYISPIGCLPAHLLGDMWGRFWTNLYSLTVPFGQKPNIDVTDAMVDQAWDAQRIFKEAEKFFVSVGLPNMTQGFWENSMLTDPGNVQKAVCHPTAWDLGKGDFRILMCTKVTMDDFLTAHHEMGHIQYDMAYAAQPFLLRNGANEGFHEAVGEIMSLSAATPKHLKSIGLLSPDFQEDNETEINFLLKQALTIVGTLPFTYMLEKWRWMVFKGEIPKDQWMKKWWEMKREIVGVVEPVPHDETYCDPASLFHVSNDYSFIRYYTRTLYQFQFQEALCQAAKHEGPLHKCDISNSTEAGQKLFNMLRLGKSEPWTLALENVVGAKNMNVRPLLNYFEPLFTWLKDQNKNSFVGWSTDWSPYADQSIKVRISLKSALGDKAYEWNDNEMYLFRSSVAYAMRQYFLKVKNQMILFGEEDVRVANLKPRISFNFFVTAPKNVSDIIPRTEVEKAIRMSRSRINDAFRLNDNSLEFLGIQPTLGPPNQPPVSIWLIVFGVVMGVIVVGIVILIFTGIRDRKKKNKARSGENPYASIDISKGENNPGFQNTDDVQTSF
Experiment: SPR binding assay, immobilized ACE2 (BIAcore T200)
Settings: up to 100,000 nM analyte
REPORTED METRIC: Binding to human ACE2 by SPR (in words)

>>> print(df.to_string())
                               query_smiles                          reported_metric  experimental_value
0  COc1cc(-c2nc3ccccc3s2)ccc1OCC(=O)Nc1ccc(C)cc1  Binding to human ACE2 by SPR (in words)          could bind
1  O=C(N/N=C/c1cc([N+](=O)[O-])ccc1Cl)c1cc(O)cc(O)c1  Binding to human ACE2 by SPR (in words)          could bind
2  CCOc1ccc(N(CC(=O)Nc2ccccc2C(=O)NCc2ccco2)S(=O)(=O)c2ccc(OC)c(OC)c2)cc1  Binding to human ACE2 by SPR (in words)          could bind

* * *

Molecular target: SARS-CoV-2 S-RBD/ACE2 interaction (UniProt P0DTC2+Q9BYF1)
Assay: cell-based
Parameters: species or system SARS-CoV-2 / human
Details: HEK293; 20 μM
The entries below come with measured inhibition at 20 µM values attached.
REPORTED METRIC: inhibition at 20 µM (%)

>>> df
                               query_smiles      reported_metric  experimental_value
0  O=C(N/N=C/c1cc([N+](=O)[O-])ccc1Cl)c1ccccc1I  inhibition at 20 µM                 0.8
1  O=C(N/N=C/c1cc([N+](=O)[O-])ccc1Cl)c1cc(O)cc(O)c1  inhibition at 20 µM                73.1
2  O=C(N/N=C/c1cc([N+](=O)[O-])ccc1Cl)c1ccccc1O  inhibition at 20 µM                 8.7
3  O=C(N/N=C/c1ccc(Cl)c([N+](=O)[O-])c1)c1cc(O)cc(O)c1  inhibition at 20 µM                61.3
4  O=C(N/N=C/c1cc([N+](=O)[O-])ccc1Cl)c1ccc(O)cc1  inhibition at 20 µM                10.6
5  O=C(N/N=C/c1cc([N+](=O)[O-])ccc1Cl)c1cccc([N+](=O)[O-])c1  inhibition at 20 µM                 1.7
6  O=C(N/N=C/c1cc([N+](=O)[O-])ccc1Cl)c1ccc(O)cc1O  inhibition at 20 µM                 1.9
7      Cc1cccc(/C=N/NC(=O)c2cc(O)cc(O)c2)c1  inhibition at 20 µM                 4.8
8  Cc1ccccc1C(=O)N/N=C/c1cc([N+](=O)[O-])ccc1Cl  inhibition at 20 µM                -3.8

* * *

System: ACE2-expressing HEK293T cells
Settings: concentration required to retain cell viability by 90%
REPORTED METRIC: MNCC, maximum non-cytotoxic concentration

>>> df
                               query_smiles  experimental_value
0  COc1cc(-c2nc3ccccc3s2)ccc1OCC(=O)Nc1ccc(C)cc1            14.01 µM
1  COc1ccc(C(=O)C[C@]2(O)C(=O)N(CCOc3ccccc3OC)c3ccccc32)c(OC)c1             2.64 µM
2  CCOc1ccc(N(CC(=O)Nc2ccccc2C(=O)NCc2ccco2)S(=O)(=O)c2ccc(OC)c(OC)c2)cc1            13.24 µM
3  O=C(N/N=C/c1cc([N+](=O)[O-])ccc1Cl)c1cc(O)cc(O)c1            95.81 µM
